Target: human APJ receptor (Homo sapiens (Human))
Test: [35S]GTPγS binding assay on membranes from CHO cells stably expressing human APJ receptor
Conditions: means of several independent experiments, read-out: Activity hAPJ SPA EC50 IP
Classify: TRUE when EC50 is strictly less than 2 nM; FALSE when EC50 is not.

{"columns": ["compound", "category"],
 "data": [
  ["COc1ncnc(OC)c1-n1c(NS(=O)(=O)[C@@H](C)[C@H](C)c2ncc(C)cn2)nnc1-c1ccccc1", "FALSE"],
  ["COc1cccc(OC)c1-n1c(NS(=O)(=O)[C@@H](C)[C@H](OC)c2ncc(C)cn2)nnc1-c1ccc2c(c1)CCO2", "FALSE"],
  ["COc1ncnc(OC)c1-n1c(NS(=O)(=O)[C@@H](C)[C@H](C)c2ncc(Cl)cn2)nnc1-c1ccccc1", "TRUE"],
  ["COc1ncnc(OC)c1-n1c(NS(=O)(=O)[C@H]2CCCN(c3ncc(Cl)cn3)C2)nnc1-c1ccccc1 (single isomer, unassigned) [Example 32.0]", "FALSE"],
  ["COc1cccc(OC)c1-n1c(NS(=O)(=O)[C@@H](C)[C@H](OC)c2ncc(C)cn2)nnc1-c1ccc(C)cc1", "FALSE"]
]}

----------
Molecular target: human APJ receptor (Homo sapiens (Human), UniProt P35414)
Sequence (P35414 whole entry): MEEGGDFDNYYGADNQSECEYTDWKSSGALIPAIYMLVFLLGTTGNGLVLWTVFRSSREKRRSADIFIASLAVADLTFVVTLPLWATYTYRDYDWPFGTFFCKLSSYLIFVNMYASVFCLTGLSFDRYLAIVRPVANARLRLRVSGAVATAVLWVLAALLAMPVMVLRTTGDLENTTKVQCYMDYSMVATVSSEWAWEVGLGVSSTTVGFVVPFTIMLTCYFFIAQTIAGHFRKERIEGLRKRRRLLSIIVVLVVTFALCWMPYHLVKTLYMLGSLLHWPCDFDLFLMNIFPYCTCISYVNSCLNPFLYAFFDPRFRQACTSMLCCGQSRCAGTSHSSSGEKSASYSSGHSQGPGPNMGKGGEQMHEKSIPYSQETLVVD
Assay: [35S]GTPγS binding assay on membranes from CHO cells stably expressing human APJ receptor
Settings: means of several independent experiments, read-out: Activity hAPJ SPA EC50 IP
pEC50: −log10 of the molar value.

{"columns": ["compound", "pEC50"],
 "data": [
  ["COc1ncnc(OC)c1-n1c(NS(=O)(=O)[C@@H](C)[C@H](O)c2ncc(C)cn2)nnc1-c1ccccc1 [Example 20.0]", 8.28],
  ["Cc1cnc([C@@H](O[Si](C)(C)C(C)(C)C)[C@H](C)S(=O)(=O)Nc2nnc(-c3ccccc3)n2-c2c(F)cccc2F)nc1 [Example 44.0]", 6.82],
  ["COc1ncnc(OC)c1-n1c(NS(=O)(=O)[C@@H](C)[C@@H](OC(C)C)c2ncc(C)cn2)nnc1-c1ccccc1 [Example 14.0]", 9.26],
  ["COc1ncnc(OC)c1-n1c(NS(=O)(=O)[C@@H](C)Cc2ncc(F)cn2)nnc1-c1ccccc1 (single isomer, unassigned) [Example 11.0]", 8.19],
  ["COCC(COC)n1c(NS(=O)(=O)[C@@H](C)[C@@H](OC(C)C)c2ncc(Cl)cn2)nnc1-c1ccccc1 [Example 123.0]", 8.14],
  ["CO[C@H](c1ncc(Cl)cn1)[C@H](C)S(=O)(=O)Nc1nnc(-c2ccccc2)n1C1(C)CC1 [Example 98.0]", 8.48]
]}

----------
Here the recorded log10 of EC50 is given for each entry.
Molecular target: human APJ receptor (Homo sapiens (Human), UniProt P35414)
Assay: [35S]GTPγS binding assay on membranes from CHO cells stably expressing human APJ receptor
Conditions: means of several independent experiments, read-out: Activity hAPJ SPA EC50 IP
measurement.type: log10 of EC50 (log10 of the value in nM)

{"columns": ["molecule", "result.number"],
 "data": [
  ["COc1cccc(OC)c1-n1c(NS(=O)(=O)[C@@H](C)[C@H](OC)c2ncc(C)cn2)nnc1-c1cccc(Br)c1 [Example 81.0]", -0.57],
  ["COc1cccc(OC)c1-n1c(NS(=O)(=O)[C@@H](C)[C@H](C)c2ncc(Cl)cn2)nnc1-c1ccccc1 [Example 16.0]", -0.70],
  ["CO[C@H](c1ncc(Cl)cn1)[C@H](C)S(=O)(=O)Nc1nnc(-c2ccccc2)n1C(C)C [Example 110.0]", 1.88],
  ["COc1ncnc(OC)c1-n1c(NS(=O)(=O)[C@@H](C)[C@H](OC)c2ncc(C)cn2)nnc1-c1cccc2cn(C)nc12 [Example 93.0]", 1.61],
  ["COCC1(n2c(NS(=O)(=O)[C@@H](C)[C@H](OC)c3ncc(Cl)cn3)nnc2-c2cccc3nn(C)cc23)CC1 [Example 114.0]", 1.72],
  ["Cc1cnc([C@@H](C)[C@H](C)S(=O)(=O)Nc2nnc(-c3cccc4nn(C)cc34)n2C2CCOCC2)nc1 [Example 120.0]", 2.77],
  ["COCCn1c(NS(=O)(=O)[C@@H](C)[C@H](OC)c2ncc(Cl)cn2)nnc1-c1ccccc1 [Example 129.0]", 1.15]
]}
